Assay: Protein binding in human plasma
Type: ADME, cell-free
Conditions: read-out: PPB (converted)
QUANTITY_KIND: fraction unbound

[
  {
    "MOLECULE": "Cc1cc(NC(=O)OCC(Oc2cccc3sc(C(=N)N)cc23)c2ccccc2)n(C)n1 (stereo not given)",
    "fraction unbound": 0.04
  },
  {
    "MOLECULE": "Cc1nn(C)c(CNC(C)C)c1NC(=O)OCC(Oc1cccc2sc(C(=N)N)cc12)c1ccccc1 (stereo not given)",
    "fraction unbound": 0.04
  },
  {
    "MOLECULE": "Cc1n[nH]c(C)c1NC(=O)OCC(Oc1cccc2sc(C(=N)N)cc12)c1ccccc1 (stereo not given)",
    "fraction unbound": 0.05
  },
  {
    "MOLECULE": "N=C(N)c1cc2c(OC(COC(=O)Nc3ccccc3CN3CCNCC3)c3ccccc3)cccc2s1 (stereo not given)",
    "fraction unbound": 0.05
  },
  {
    "MOLECULE": "CNCc1c(NC(=O)OCC(Oc2cccc3sc(C(=N)N)cc23)c2ccccc2)c(C)nn1C (stereo not given)",
    "fraction unbound": 0.05
  }
]

* * *

Assay: AUC (0 to infinity) in anesthetized Sprague-Dawley rat at 5 mg/kg, iv
Format: ADME, organism-based
Design: dose 5 mg/kg, route intravenous, time infinity
Details: plasma
QUANTITY_KIND: AUC(0-inf) (µM·h)

a. N=C(N)c1cc2c(OC(COC(=O)Nc3ccc(F)cc3)c3ccccc3)cccc2s1 (configuration not stated)
b. Cc1cc(NC(=O)OCC(Oc2cccc3sc(C(=N)N)cc23)c2ccccc2)n(C)n1 (configuration not stated)
INPUT: Would you let me know which has the greater AUC(0-inf) value, a or b ? Could you answer with the label of the item you picked?
OUTPUT: a

* * *

Target: Coagulation factor IX (Homo sapiens, UniProt P00740)
Sequence (P00740 47-191 limits assumed): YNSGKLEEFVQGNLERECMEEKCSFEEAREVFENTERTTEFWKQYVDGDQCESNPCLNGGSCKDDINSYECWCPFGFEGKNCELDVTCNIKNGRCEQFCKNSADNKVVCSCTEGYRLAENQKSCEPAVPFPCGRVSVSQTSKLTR
Sequence (P00740 227-461 limits assumed): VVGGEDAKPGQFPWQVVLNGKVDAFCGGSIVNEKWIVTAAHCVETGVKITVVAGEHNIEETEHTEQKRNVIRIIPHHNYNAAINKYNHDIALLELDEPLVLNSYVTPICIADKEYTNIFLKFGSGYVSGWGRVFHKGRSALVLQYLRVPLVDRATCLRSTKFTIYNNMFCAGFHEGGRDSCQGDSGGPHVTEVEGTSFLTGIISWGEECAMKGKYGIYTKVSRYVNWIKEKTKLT
Test: Inhibition of human recombinant factor 9a by amidolytic assay
pKi: −log10 of the molar value.
QUANTITY_KIND: pKi

# count of solved cases: 7
[
  {
    "COMPOUND": "COc1ccc(NC(=O)C(Oc2cccc3sc(C(=N)N)cc23)c2ccccc2)cc1 (centres undefined)",
    "pKi": 6.85
  },
  {
    "COMPOUND": "CN(C)Cc1ccccc1NC(=O)OCC(Oc1cccc2sc(C(=N)N)cc12)c1ccccc1 (centres undefined)",
    "pKi": 8.10
  },
  {
    "COMPOUND": "CN(C)C(=O)c1ccc(NC(=O)C(Oc2cccc3sc(C(=N)N)cc23)c2ccccc2)cc1 (centres undefined)",
    "pKi": 6.43
  },
  {
    "COMPOUND": "N=C(N)c1cc2c(OC(C(=O)Nc3ccccc3)c3ccccc3)cccc2s1 (centres undefined)",
    "pKi": 6.77
  },
  {
    "COMPOUND": "CN(C)CCNC(=O)C(Oc1cccc2sc(C(=N)N)cc12)c1ccccc1 (centres undefined)",
    "pKi": 6.00
  },
  {
    "COMPOUND": "COc1ccc(NC(=O)OCC(Oc2cccc3sc(C(=N)N)cc23)c2ccccc2)cc1 (centres undefined)",
    "pKi": 8.30
  },
  {
    "COMPOUND": "N=C(N)c1cc2c(OC(COC(=O)Nc3ccccc3CN)c3ccccc3)cccc2s1 (centres undefined)",
    "pKi": 8.40
  }
]

1. CN(C)CCOc1ccc(NC(=O)OCC(Oc2cccc3sc(C(=N)N)cc23)c2ccccc2)cc1 (centres undefined)
2. Cc1cc(NC(=O)OCC(Oc2cccc3sc(C(=N)N)cc23)c2ccccc2)n(C)n1 (centres undefined)
INPUT: Hi there, can you help? I need to know whether 1 or 2 has lower measured pKi. Refer to your chosen item by its label in the answer.
OUTPUT: 2

* * *

Assay: Selectivity ratio of Ki for uPA to Ki for human recombinant factor 9a
QUANTITY_KIND: Ratio Ki

Worked cases, answers included:
[
  {
    "COMPOUND": "N=C(N)c1cc2c(OC(COC(=O)Nc3ccccc3F)c3ccccc3)cccc2s1 (centres undefined)",
    "Ratio Ki": 62
  },
  {
    "COMPOUND": "CNCc1c(NC(=O)OCC(Oc2cccc3sc(C(=N)N)cc23)c2ccccc2)c(C)nn1C (centres undefined)",
    "Ratio Ki": 31
  },
  {
    "COMPOUND": "CN(C)Cc1ccccc1NC(=O)OCC(Oc1cc(F)cc2sc(C(=N)N)cc12)c1ccccc1 (centres undefined)",
    "Ratio Ki": 117
  },
  {
    "COMPOUND": "COCc1cc(NC(=O)OCC(Oc2cccc3sc(C(=N)N)cc23)c2ccccc2)n(C)n1 (centres undefined)",
    "Ratio Ki": 12
  },
  {
    "COMPOUND": "COc1ccc(NC(=O)OC[C@H](Oc2cccc3sc(C(=N)N)cc23)c2ccccc2)cc1",
    "Ratio Ki": 30
  }
]

a. Cc1ccccc1NC(=O)OCC(Oc1cccc2sc(C(=N)N)cc12)c1ccccc1 (centres undefined)
b. CC(C)CNCc1ccccc1NC(=O)OCC(Oc1cccc2sc(C(=N)N)cc12)c1ccccc1 (centres undefined)
c. COC(=O)Cn1nc(C)c(NC(=O)OCC(Oc2cccc3sc(C(=N)N)cc23)c2ccccc2)c1C (centres undefined)
d. N=C(N)c1cc2c(OC(COC(=O)Nc3ccc(F)cc3F)c3ccccc3)cccc2s1 (centres undefined)
INPUT: Highest Ratio Ki first, then in falling order down to the smallest. Answer by listing the labels in the requested order.
OUTPUT: b, d, a, c

* * *

Target: Coagulation factor IX (Homo sapiens, UniProt P00740)
Test: Inhibition of human recombinant factor 9a by amidolytic assay
pKi: −log10 of the molar value.
QUANTITY_KIND: pKi

Take a look at these entries with their results.
[
  {
    "COMPOUND": "N=C(N)c1cc2c(OC(CNC(=O)Oc3ccccc3)c3ccccc3)cccc2s1 (stereo not given)",
    "pKi": 7.30
  },
  {
    "COMPOUND": "CCOC(=O)c1nccn1-c1ccc(NC(=O)C(Oc2cccc3sc(C(=N)N)cc23)c2ccccc2)cc1 (stereo not given)",
    "pKi": 6.38
  },
  {
    "COMPOUND": "N=C(N)c1cc2c(OC(CN)c3ccccc3)cccc2s1 (stereo not given)",
    "pKi": 6.80
  },
  {
    "COMPOUND": "COC(=O)C(Oc1cccc2sc(C(=N)N)cc12)c1ccccc1 (stereo not given)",
    "pKi": 6.30
  },
  {
    "COMPOUND": "COc1ccccc1NC(=O)C(Oc1cccc2sc(C(=N)N)cc12)c1ccccc1 (stereo not given)",
    "pKi": 6.85
  },
  {
    "COMPOUND": "N=C(N)c1cc2c(OC(C(=O)Nc3ccc(C(=O)N4CCCC4)cc3)c3ccccc3)cccc2s1 (stereo not given)",
    "pKi": 6.54
  }
]

1. N=C(N)c1cc2c(OC(COC(=O)Nc3ccc(F)cc3)c3ccccc3)cccc2s1 (stereo not given)
2. CCNC(=O)OCC(Oc1cccc2sc(C(=N)N)cc12)c1ccccc1 (stereo not given)
3. COc1cccc(NC(=O)C(Oc2cccc3sc(C(=N)N)cc23)c2ccccc2)c1 (stereo not given)
INPUT: Arrange these 3 compounds in increasing order of pKi. A complete answer lists every label in the requested sequence.
OUTPUT: 3, 2, 1
(3: 6.89, 2: 7.55, 1: 8.10)

* * *

Here we list compounds with their recorded Ki when tested on Coagulation factor X (Homo sapiens).
Sequence (P00742 41-179 limits assumed): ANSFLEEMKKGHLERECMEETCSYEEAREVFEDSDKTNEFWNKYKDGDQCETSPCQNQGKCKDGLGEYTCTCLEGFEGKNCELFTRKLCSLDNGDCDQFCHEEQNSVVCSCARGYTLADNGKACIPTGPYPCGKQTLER
Sequence (P00742 235-488 limits assumed): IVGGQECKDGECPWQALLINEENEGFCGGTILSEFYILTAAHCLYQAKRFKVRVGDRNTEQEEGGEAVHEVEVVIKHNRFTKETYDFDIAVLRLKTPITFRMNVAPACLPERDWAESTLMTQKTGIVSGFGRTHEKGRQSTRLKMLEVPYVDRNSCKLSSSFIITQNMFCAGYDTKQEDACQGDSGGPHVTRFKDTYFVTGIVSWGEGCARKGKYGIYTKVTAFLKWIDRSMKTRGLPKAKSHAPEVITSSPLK
QUANTITY_KIND: Ki (nM)

Worked examples, 7 compounds total:
[
  {
    "COMPOUND": "N=C(N)c1cc2c(OC(CN)c3ccccc3)cccc2s1 (stereo not given)",
    "NUMBER": 4450
  },
  {
    "COMPOUND": "N=C(N)c1cc2c(OC(COC(=O)Nc3ccccc3)c3ccccc3)cc(F)cc2s1 (stereo not given)",
    "NUMBER": 1590
  },
  {
    "COMPOUND": "N=C(N)c1cc2c(OC(CNCc3ccccc3)c3ccccc3)cccc2s1 (stereo not given)",
    "NUMBER": 250
  },
  {
    "COMPOUND": "COCc1cc(NC(=O)OCC(Oc2cccc3sc(C(=N)N)cc23)c2ccccc2)n(C)n1 (stereo not given)",
    "NUMBER": 1560
  },
  {
    "COMPOUND": "CNCc1cc(NC(=O)OCC(Oc2cccc3sc(C(=N)N)cc23)c2ccccc2)n(C)n1 (stereo not given)",
    "NUMBER": 1270
  },
  {
    "COMPOUND": "N=C(N)c1cc2c(OC(C(=O)Nc3ccc(C(=O)N4CCCC4)cc3)c3ccccc3)cccc2s1 (stereo not given)",
    "NUMBER": 0.5
  },
  {
    "COMPOUND": "N=C(N)c1cc2c(OC(COC(=O)Nc3ccccc3CN3CCNCC3)c3ccccc3)cccc2s1 (stereo not given)",
    "NUMBER": 354
  }
]

a. COc1ccc(NC(=O)C(Oc2cccc3sc(C(=N)N)cc23)c2ccccc2)cc1 (stereo not given)
b. Cc1n[nH]c(C)c1NC(=O)OCC(Oc1cccc2sc(C(=N)N)cc12)c1ccccc1 (stereo not given)
INPUT: Higher Ki: a or b ? Provide the label of your selected option as the answer.
OUTPUT: b
